# test_name: PSAC antagonists in infected red cells, primary screen, cell-based, P. falciparum Indochina, OD700, 2 h (AID 1155);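 further: lysis reports solute entry through the parasite surface anion channel PSAC; channel blockers reduce lysis of infected cells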
# settings: P. falciparum Indochina infected erythrocytes, osmotic lysis OD700; higher = more signal, called active from +8 up or from −8 down
# z-score values compiled below
measurement_kind: z-score

>>> readout_number("CC(C)C(CO)N1C(=O)[C@@H]2C3C(=O)OCCC/C=C\\[C@H]3OC23C=CCN(C(C)(C)C)C(=O)[C@@H]13 (stereo partly specified)")
0.488
>>> readout_number("CCOC(=O)c1ccc(NC(=O)O[C@H]2[C@H](OC(=O)Nc3ccc4c(c3)OCO4)[C@@H](OC(=O)Nc3ccc4c(c3)OCO4)[C@@H](OC)O[C@@H]2CO)cc1")
1.31
>>> readout_number("C=CCN1Cc2ccccc2[C@H]2OC(c3ccc(OCCCO)cc3)=N[C@@]2(CC=C)C1=O")
25.7
>>> readout_number("C=C(COC)/C(=C/C[C@H](OC(C)=O)c1ccc(OCCO)cc1)c1cc(C(=O)OC)ccc1OC")
7.54
>>> readout_number("C=CC[C@]1(C(=O)O)COC(c2ccc(OCCCO)cc2)=N1")
-0.0432
>>> readout_number("COc1ccc(-c2cc3c(c(CCc4ccccc4)n2)[Si](C(C)C)(C(C)C)OC3)cn1")
0.745
>>> readout_number("COCCOC(=O)N1C(=O)[C@@]2(c3cc(C#CCCO)ccc31)[C@H](c1ccccc1OCCO)N1[C@H](c3ccccc3)[C@H](c3ccccc3)OC(=O)[C@H]1[C@@H]2C(=O)Nc1nc2ccccc2s1")
3.36
>>> readout_number("Cc1ccc(S[C@]2(C(=O)O)CC(=O)N(Cc3cc(C(F)(F)F)cc(C(F)(F)F)c3)[C@@H]2c2ccc(CO)cc2)cc1")
1.01
>>> readout_number("COc1ccccc1CN1C(=O)c2ccccc2[C@@]2(Cc3ccccc3N(CC(F)(F)F)C2=O)[C@@H]1c1ccc(CO)cc1")
0.633
>>> readout_number("Cn1cccc1C(O)C1C=CC2C(=O)NC(=O)C2N1Nc1ccc(Cl)cc1Cl (stereo unspecified)")
1.35
>>> readout_number("O=C1NC(=O)C2C1C=CC(C(O)c1ccco1)N2Nc1ccccn1 (stereo unspecified)")
0.74
>>> readout_number("COCCOC(=O)N1C(=O)[C@@]2(c3cc(C#CCNC(N)=O)ccc31)[C@H](C(=O)N1CCc3cc(OC)c(OC)cc3C1)[C@H]1C(=O)O[C@H](c3ccccc3)[C@H](c3ccccc3)N1[C@@H]2c1ccccc1OCCO")
0.178
>>> readout_number("CCCCC=C[C@@H](NC(=O)c1ccc(-c2ccccc2)cc1)c1ccccc1")
0.631
>>> readout_number("COC(=O)c1c2oc(c1C(=O)OC)C(=O)N(Cc1ccccc1)Cc1cn(nn1)C[C@H](Cc1ccccc1)NC(=O)N[C@H](CO)CC2")
0.393
>>> readout_number("O=C1NC(=O)C2C1C=CC(C(O)c1cccc3ccccc13)N2Nc1ccc(Cl)cc1Cl (stereo unspecified)")
0.994
>>> readout_number("CCCCO[C@H]1C[C@H]2C(I)=C[C@@H]1C(=O)[C@]21CO1")
0.18
